Fold Increase over WT CD80-IgV-Fe values for the molecules below.
Target: CD28 (Homo sapiens, UniProt P10747)
Test: Jurkat/IL2 + CHO/OKT3 +/- PD-L1 reporter assay: PD-L1-dependent CD28 costimulation
Type: cell-based
Set-up: host or cells: Jurkat cells expressing an IL-2-luciferase reporter
Settings: Table E12; Jurkat/IL2 + CHO/OKT3/PD-L1; 5.0 nM
Enter a number only.

[
  {
    "molecule": "M47I/A71G (protein) VIHVTKEVKEVATLSCGHNVSVEELAQTRIYWQKEKKMVLTMMSGDINIWPEYKNRTIFDITNNLSIVILGLRPSDEGTYECVVLKYEKDAFKREHLAEVTLSVKAD",
    "Fold Increase over WT CD80-IgV-Fe": 4.4
  },
  {
    "molecule": "E35D/M47I/N48K/I61F (protein) VIHVTKEVKEVATLSCGHNVSVEELAQTRIYWQKDKKMVLTMMSGDIKIWPEYKNRTIFDFTNNLSIVILALRPSDEGTYECVVLKYEKDAFKREHLAEVTLSVKAD",
    "Fold Increase over WT CD80-IgV-Fe": 5.2
  },
  {
    "molecule": "E35D/D46E/M47I (protein) VIHVTKEVKEVATLSCGHNVSVEELAQTRIYWQKDKKMVLTMMSGEINIWPEYKNRTIFDITNNLSIVILALRPSDEGTYECVVLKYEKDAFKREHLAEVTLSVKAD",
    "Fold Increase over WT CD80-IgV-Fe": 4.8
  },
  {
    "molecule": "E35D/T41S/N48T (protein) VIHVTKEVKEVATLSCGHNVSVEELAQTRIYWQKDKKMVLSMMSGDMTIWPEYKNRTIFDITNNLSIVILALRPSDEGTYECVVLKYEKDAFKREHLAEVTLSVKAD",
    "Fold Increase over WT CD80-IgV-Fe": 2.8
  },
  {
    "molecule": "H18Y/E35D/M47L/A71G/A91S (protein) VIHVTKEVKEVATLSCGYNVSVEELAQTRIYWQKDKKMVLTMMSGDLNIWPEYKNRTIFDITNNLSIVILGLRPSDEGTYECVVLKYEKDSFKREHLAEVTLSVKAD",
    "Fold Increase over WT CD80-IgV-Fe": 4.7
  }
]

Entry E35D/D46E (protein) VIHVTKEVKEVATLSCGHNVSVEELAQTRIYWQKDKKMVLTMMSGEMNIWPEYKNRTIFDITNNLSIVILALRPSDEGTYECVVLKYEKDAFKREHLAEVTLSVKAD , Fold Increase over WT CD80-IgV-Fe reported as 4.9

The molecule identified as M43I/M47L/A71G (protein) VIHVTKEVKEVATLSCGHNVSVEELAQTRIYWQKEKKMVLTMISGDLNIWPEYKNRTIFDITNNLSIVILGLRPSDEGTYECVVLKYEKDAFKREHLAEVTLSVKAD registered its Fold Increase over WT CD80-IgV-Fe at 4.1

Notebook: E35D/M47L/A71G/L85M (protein) VIHVTKEVKEVATLSCGHNVSVEELAQTRIYWQKDKKMVLTMMSGDLNIWPEYKNRTIFDITNNLSIVILGLRPSDEGTYECVVMKYEKDAFKREHLAEVTLSVKAD , Fold Increase over WT CD80-IgV-Fe read as 3.8
